Hello, the source for this data is ChEMBL document CHEMBL3526018, in case you need it.

- protocol_summary: Half life in non-Hodgkin lymphoma patient at 15 mg, po alternate days for 21 days
- Format: ADME, organism-based
- experimental_conditions: human, in vivo
result_type: half-life (h)
Numbers only, in h.

Please report the recorded half-life for CO[C@@H]1[C@H](OC(=O)N[C@@H](C(N)=O)C(C)C)CC[C@]2(CO2)[C@H]1[C@@]1(C)O[C@@H]1CC=C(C)C .
1.6

* * *

- Tested on: CYP3A5 (Homo sapiens)
- protocol_summary: Activity of human recombinant CYP3A5 assessed as ((3R,4S,5S,6R)-5-methoxy-4-((2R,3R)-2-methyl-3-(3-methylbut-2-en-1-yl)oxiran-2-yl)-1-oxaspiro[2.5]octan-6-yl ((R)-1-amino-3-hydroxy-3-methyl-1-oxobutan-2-yl)carbamate) formation
- experimental_conditions: recombinant enzyme
result_type: Km

Please report the recorded Km for CO[C@@H]1[C@H](OC(=O)N[C@@H](C(N)=O)C(C)C)CC[C@]2(CO2)[C@H]1[C@@]1(C)O[C@@H]1CC=C(C)C .
17 µM

* * *

- protocol_summary: AUC (0 to t hrs) in non-Hodgkin lymphoma patient at 15 mg, po alternate days for 21 days
- Type: ADME, organism-based
- experimental_conditions: human, in vivo
result_type: AUC(0-t) at 504 h (ng·h/mL)
Answers are plain numbers, in ng·h/mL.

Please report the recorded AUC(0-t) at 504 h for CO[C@@H]1[C@H](OC(=O)N[C@@H](C(N)=O)C(C)C)CC[C@]2(CO2)[C@H]1[C@@]1(C)O[C@@H]1CC=C(C)C .
43.9

* * *

- protocol_summary: Apparent oral clearance in non-Hodgkin lymphoma patient at 15 mg, po alternate days for 21 days
- Format: ADME, organism-based
- experimental_conditions: human, in vivo
result_type: CL/F (mL/min)
Numbers only, in mL/min.

Please report the recorded CL/F for CO[C@@H]1[C@H](OC(=O)N[C@@H](C(N)=O)C(C)C)CC[C@]2(CO2)[C@H]1[C@@]1(C)O[C@@H]1CC=C(C)C [PPI-2458] .
5880

* * *

- target_under_test: Cytochrome P450 3A4 (Homo sapiens)
- Sequence (P08684 whole entry): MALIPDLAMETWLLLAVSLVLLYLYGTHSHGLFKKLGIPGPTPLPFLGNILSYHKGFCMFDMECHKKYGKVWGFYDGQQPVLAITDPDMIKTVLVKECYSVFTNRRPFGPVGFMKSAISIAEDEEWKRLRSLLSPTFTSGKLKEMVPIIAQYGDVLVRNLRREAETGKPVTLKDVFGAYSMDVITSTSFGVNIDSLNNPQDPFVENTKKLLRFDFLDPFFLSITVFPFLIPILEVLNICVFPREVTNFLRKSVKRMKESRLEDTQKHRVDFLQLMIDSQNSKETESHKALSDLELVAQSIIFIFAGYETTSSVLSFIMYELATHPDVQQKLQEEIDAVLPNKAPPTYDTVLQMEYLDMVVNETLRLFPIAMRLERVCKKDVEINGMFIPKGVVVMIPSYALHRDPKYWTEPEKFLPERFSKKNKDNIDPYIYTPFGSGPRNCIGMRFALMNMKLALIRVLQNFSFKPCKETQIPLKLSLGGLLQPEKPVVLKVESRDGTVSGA
- protocol_summary: Inhibition of CYP3A4 activity in human liver microsomes using midazolam as a substrate by LC/MS analysis
- Type: ADME
result_type: pKi
Numbers only, as −log10 of the molar value.

API: value(readout= pKi, system= Cytochrome P450 3A4 (Homo sapiens), query= CO[C@@H]1[C@H](OC(=O)N[C@@H](C(N)=O)C(C)C)CC[C@]2(CO2)[C@H]1[C@@]1(C)O[C@@H]1CC=C(C)C [PPI-2458] )
4.24

* * *

For each entry below, report its Retention_time value.
- protocol_summary: Retention time in mouse liver microsomes treated with at 5 mM PPI-2458 by LC/MS analysis
- Type: ADME
- experimental_conditions: 5000 µM
Give bare numbers, in min.

CO[C@@H]1[C@H](OC(=O)N[C@@H](C(N)=O)C(C)C)CC[C@]2(CO2)[C@H]1[C@@]1(C)O[C@@H]1C[C@H]1OC1(C)C
20.8

For each listed entry, give its Retention_time.
1. CO[C@@H]1[C@H](OC(=O)N[C@@H](C(N)=O)C(C)C)CC[C@]2(CO2)[C@H]1[C@@]1(C)O[C@@H]1C[C@@H]1OC1(C)C
2. CO[C@@H]1[C@H](OC(=O)N[C@@H](C(N)=O)C(C)(C)O)CC[C@]2(CO2)[C@H]1[C@@]1(C)O[C@@H]1CC=C(C)C
3. CO[C@@H]1[C@H](OC(=O)N[C@@H](C(N)=O)C(C)C)CC[C@]2(CO2)[C@H]1[C@@]1(C)O[C@@H]1C/C=C(\C)CO

20.1
26.7
17.6
